study target: Gal1 (Homo sapiens)
Construct: made in house
Sequence (P09382 whole entry): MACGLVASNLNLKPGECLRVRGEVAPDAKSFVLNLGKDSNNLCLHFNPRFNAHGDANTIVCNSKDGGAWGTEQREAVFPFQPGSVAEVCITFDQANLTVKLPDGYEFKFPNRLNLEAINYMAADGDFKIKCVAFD
method notes: Binding of 488-Gal1 to HUVEC
experimental parameters: lactose/sucrose 30 mM, swainsonine 3 μM, benzyl-α-GalNAc 2 mM, mAb 0.5 μM

smiles input	effect on binding of Gal1 to ECs
OC[C@H]1O[C@@](CO)(O[C@H]2O[C@H](CO)[C@@H](O)[C@H](O)[C@H]2O)[C@@H](O)[C@@H]1O	not
